Tested on: Mino cells
Assay: cells
Details: Homo sapiens, 72 h, read-out: IC50, cell growth inhibition / cell viability
Observable: IC50 (nM)
Return type: number; implicit unit nM.

Input: Entry Nc1cccc2c1C(=O)N(C1CCC(=O)NC1=O)C2=O (stereo not shown) [Pomalidomide, reference compound] : reported IC50 = ?
Output: 329

* * *

System: MM.1S cells
Assay: Alarma Blue cell viability assay, MM.1S cells
Type: cell-based
Settings: Homo sapiens, MM1.S, 120 h, read-out: IC50, cell growth inhibition
Observable: pIC50
# pIC50 = -log10(concentration in molar units)

Input: Entry O=C1CCC(N2C(=O)c3cccc(NCC(=O)N4CCN(c5ccc(Nc6nc(Oc7ccccc7)c7occc7n6)cc5)CC4)c3C2=O)C(=O)N1 (stereo not shown) [PS-1] : reported pIC50 = ?
Output: 8.52
